All values here come from patent US9113629B2.

tested on: Key Grass and Sedge Weeds as well as Grass Crops; test: Post-emergent Test II herbicidal activity (Table 6); type: in vivo; settings: post-emergence, 336 h, SORVU: grain sorghum (Sorghum vulgare), application rate 70 g ai/ha, read-out: Visual Growth Reduction (%) 14 Days After Application, SORVU
Entries and their measured pest or weed control at 70 g/ha follow.
observable: pest or weed control at 70 g/ha

- smi: "COC(=O)c1nc(-c2ccc(Br)cc2F)cc(N)c1Cl"
  targetSystem: "Key Grass and Sedge Weeds as well as Grass Crops"
  recordedValue: "85 to 94%"
- smi: "COC(=O)c1nc(-c2cc(F)c(I)cc2F)cc(N)c1Cl"
  targetSystem: "Key Grass and Sedge Weeds as well as Grass Crops"
  recordedValue: "75 to 84%"
- smi: "COC(=O)c1nc(-c2cc(F)c(F)cc2F)c(F)c(N)c1Cl"
  targetSystem: "Key Grass and Sedge Weeds as well as Grass Crops"
  recordedValue: "0 to 29%"
- smi: "C#Cc1ccc(-c2nc(C(=O)O)c(C=C)c(N)c2F)cc1"
  targetSystem: "Key Grass and Sedge Weeds as well as Grass Crops"
  recordedValue: "60 to 74%"
- smi: "COc1c(N)nc(-c2cc(F)c(C)cc2F)nc1C(=O)O"
  targetSystem: "Key Grass and Sedge Weeds as well as Grass Crops"
  recordedValue: "0 to 29%"
- smi: "Nc1c(Cl)c(C(=O)O)nc(-c2ccc(I)cc2)c1Cl"
  targetSystem: "Key Grass and Sedge Weeds as well as Grass Crops"
  recordedValue: "75 to 84%"
- smi: "COC(=O)c1nc(-c2cc(F)c(C(F)F)cc2F)nc(N)c1OC"
  targetSystem: "Key Grass and Sedge Weeds as well as Grass Crops"
  recordedValue: "0 to 29%"

* * *

Entries and their measured pest or weed control at 140 g/ha follow.
test system: Key Grass and Sedge Weeds as well as Grass Crops; experiment: Post-emergent Test II herbicidal activity (Table 6); type: in vivo; conditions: post-emergence, 336 h, DIGSA: crabgrass (Digitaria sanguinalis), application rate 140 g ai/ha, read-out: Visual Growth Reduction (%) 14 Days After Application, DIGSA

- molecule: "C=Cc1c(C(=O)OC)nc(-c2ccc(C#N)cc2)c(F)c1N [Compound 107]"
  pest or weed control at 140 g/ha: "0 to 29%"
- molecule: "COC(=O)c1nc(-c2ccc(C#N)c(F)c2)c(C)c(N)c1Cl [Compound 155]"
  pest or weed control at 140 g/ha: "0 to 29%"
- molecule: "COC(=O)c1nc(-c2c(F)cc(I)c(F)c2F)cc(N)c1Cl [Compound 90]"
  pest or weed control at 140 g/ha: "75 to 84%"
- molecule: "Cc1c(-c2ccc(I)cc2)nc(C(=O)O)c(Cl)c1N [Compound 116]"
  pest or weed control at 140 g/ha: "60 to 74%"
- molecule: "C=Cc1c(C(=O)O)nc(-c2ccc(C#N)cc2)c(F)c1N [Compound 150]"
  pest or weed control at 140 g/ha: "0 to 29%"
- molecule: "COC(=O)c1nc(-c2ccc(I)c(F)c2)nc(N)c1OC [Compound 27]"
  pest or weed control at 140 g/ha: "0 to 29%"

* * *

test system: Key Broadleaf Weed and Crop Species; test: Post-emergent Test II herbicidal activity (Table 5); format: in vivo; details: post-emergence, 336 h; EPHHL: wild poinsettia (Euphorbia heterophylla); 140 g ai/ha; post-emergent; 14 days after application; read-out: Visual Growth Reduction (%) 14 Days After Application EPHHL
observable: pest or weed control at 140 g/ha

- compound: "COC(=O)c1nc(-c2ccc(OC(F)(F)F)cc2)nc(N)c1OC [Compound 30]"
  targetSystem: "Key Broadleaf Weed and Crop Species"
  observable: "pest or weed control at 140 g/ha"
  recordedValue: "95 to 100%"
- compound: "Nc1cc(-c2ccc(I)c(F)c2)nc(C(=O)O)c1Cl [Compound 77]"
  targetSystem: "Key Broadleaf Weed and Crop Species"
  observable: "pest or weed control at 140 g/ha"
  recordedValue: "95 to 100%"
- compound: "COC(=O)c1nc(-c2ccc(OC(F)(F)F)cc2)c(Cl)c(N)c1Cl [Compound 170]"
  targetSystem: "Key Broadleaf Weed and Crop Species"
  observable: "pest or weed control at 140 g/ha"
  recordedValue: "0 to 29%"
- compound: "C=Cc1c(C(=O)O)nc(-c2ccc(I)cc2)c(F)c1N [Compound 17]"
  targetSystem: "Key Broadleaf Weed and Crop Species"
  observable: "pest or weed control at 140 g/ha"
  recordedValue: "95 to 100%"
- compound: "Cc1c(-c2ccc(Br)cc2)nc(C(=O)O)c(Cl)c1N [Compound 78]"
  targetSystem: "Key Broadleaf Weed and Crop Species"
  observable: "pest or weed control at 140 g/ha"
  recordedValue: "0 to 29%"
- compound: "COC(=O)c1nc(-c2ccc(C#N)c(F)c2)c(C)c(N)c1Cl [Compound 155]"
  targetSystem: "Key Broadleaf Weed and Crop Species"
  observable: "pest or weed control at 140 g/ha"
  recordedValue: "0 to 29%"

* * *

Entries and their measured pest or weed control at 140 g/ha follow.
test system: Key Broadleaf Weed and Crop Species; test: Post-emergent Test II herbicidal activity (Table 5); format: in vivo; details: post-emergence, 336 h; HELAN: sunflower (Helianthus annuus); 140 g ai/ha; post-emergent; 14 days after application; read-out: Visual Growth Reduction (%) 14 Days After Application HELAN

- molecule: "COC(=O)c1nc(-c2ccc(Br)c(F)c2)c(Cl)c(N)c1Cl [Compound 73]"
  pest or weed control at 140 g/ha: "95 to 100%"
- molecule: "COC(=O)c1nc(-c2cc(F)c(Br)cc2F)nc(N)c1OC [Compound 2]"
  pest or weed control at 140 g/ha: "95 to 100%"
- molecule: "C=Cc1c(C(=O)O)nc(-c2ccc(C(F)(F)F)c(F)c2)c(F)c1N [Compound 86]"
  pest or weed control at 140 g/ha: "95 to 100%"
- molecule: "C=Cc1c(C(=O)O)nc(-c2ccc(C#N)cc2)c(F)c1N [Compound 150]"
  pest or weed control at 140 g/ha: "95 to 100%"
- molecule: "C#Cc1ccc(-c2nc(C(=O)OC)c(Cl)c(N)c2Cl)cc1 [Compound 34]"
  pest or weed control at 140 g/ha: "95 to 100%"
- molecule: "COC(=O)c1nc(-c2ccc(C#N)cc2)nc(N)c1OC [Compound 130]"
  pest or weed control at 140 g/ha: "85 to 94%"
- molecule: "C=Cc1c(C(=O)OC)nc(-c2ccc(Br)cc2)c(F)c1N [Compound 57]"
  pest or weed control at 140 g/ha: "85 to 94%"
- molecule: "C=Cc1c(C(=O)OC)nc(-c2ccc(C(F)(F)F)c(F)c2)c(F)c1N [Compound 12]"
  pest or weed control at 140 g/ha: "0 to 29%"
- molecule: "COC(=O)c1nc(-c2ccc(I)cc2)c(C)c(N)c1Cl [Compound 136]"
  pest or weed control at 140 g/ha: "95 to 100%"
- molecule: "C#Cc1ccc(-c2nc(N)c(OC)c(C(=O)OC)n2)cc1 [Compound 166]"
  pest or weed control at 140 g/ha: "85 to 94%"

* * *

system: VIOSS: wild pansy (Viola tricolor), field violet (Viola arvensis); assay: Post-emergent Test III, herbicidal activity in wheat and barley; assay type: in vivo; conditions: probit analysis; dose for 50 percent growth reduction; 21 days after application
For each record, check the reported GR50 VIOSS: if it is below 9 g ai/ha write class 1, else write class 0.

- smi: "Nc1c(F)c(-c2ccc(I)c(F)c2F)nc(C(=O)O)c1Cl"
  targetSystem: "VIOSS: wild pansy (Viola tricolor), field violet (Viola arvensis)"
  groupLabel: "class 1"
- smi: "Nc1cc(-c2ccc(I)c(F)c2F)nc(C(=O)O)c1Cl"
  targetSystem: "VIOSS: wild pansy (Viola tricolor), field violet (Viola arvensis)"
  groupLabel: "class 0"
- smi: "COC(=O)c1nc(-c2ccc(Br)c(F)c2F)nc(N)c1OC"
  targetSystem: "VIOSS: wild pansy (Viola tricolor), field violet (Viola arvensis)"
  groupLabel: "class 0"
- smi: "Nc1c(F)c(-c2ccc(I)c(F)c2)nc(C(=O)O)c1Cl"
  targetSystem: "VIOSS: wild pansy (Viola tricolor), field violet (Viola arvensis)"
  groupLabel: "class 1"

* * *

tested on: Key Broadleaf Weed and Crop Species; assay: Post-emergent Test II herbicidal activity (Table 5); format: in vivo; conditions: post-emergence, 336 h; VIOTR: wild pansy (Viola tricolor); application rate 70 g ai/ha; 14 days after application; read-out: Visual Growth Reduction (%) 14 Days After Application, VIOTR
observable: pest or weed control at 70 g/ha

- smi: "COC(=O)c1nc(-c2ccc(Br)c(F)c2F)cc(N)c1Cl"
  observable: "pest or weed control at 70 g/ha"
  recordedValue: "95 to 100%"
- smi: "Nc1cc(-c2ccc(C(F)(F)F)c(F)c2F)nc(C(=O)O)c1Cl"
  observable: "pest or weed control at 70 g/ha"
  recordedValue: "45 to 59%"
- smi: "COC(=O)c1nc(-c2ccc(C(F)(F)F)c(F)c2)c(F)c(N)c1Cl"
  observable: "pest or weed control at 70 g/ha"
  recordedValue: "45 to 59%"
- smi: "Cc1ccc(-c2nc(C(=O)O)c(Cl)c(N)c2F)cc1F"
  observable: "pest or weed control at 70 g/ha"
  recordedValue: "0 to 29%"
- smi: "Nc1cc(-c2ccc(I)cc2)nc(C(=O)O)c1Cl"
  observable: "pest or weed control at 70 g/ha"
  recordedValue: "0 to 29%"
- smi: "C#Cc1ccc(-c2nc(C(=O)OC)c(Cl)c(N)c2F)cc1F"
  observable: "pest or weed control at 70 g/ha"
  recordedValue: "0 to 29%"
- smi: "COC(=O)c1nc(-c2ccc(C(F)(F)F)c(F)c2F)nc(N)c1OC"
  observable: "pest or weed control at 70 g/ha"
  recordedValue: "60 to 74%"
- smi: "COC(=O)c1nc(-c2ccc(C(F)(F)F)c(F)c2)cc(N)c1Cl"
  observable: "pest or weed control at 70 g/ha"
  recordedValue: "0 to 29%"
- smi: "Nc1c(F)c(-c2ccc(I)cc2)nc(C(=O)O)c1Cl"
  observable: "pest or weed control at 70 g/ha"
  recordedValue: "85 to 94%"
